Quick list: TGI per entry.
test system: TK-10 renal; test: NCI tumour cell line growth inhibition, 384-well format
parameter: TGI (µM)

molecule=CCOc1ccn(-c2ccc(F)cc2)c(=O)c1C(=O)Nc1ccc(Oc2ccnc(N)c2Cl)c(F)c1 parameter=TGI unit_symbol=µM limit_operator== result=95
molecule="C#CCN(c1ccc(C(=O)N[C@@H](CCC(=O)N[C@H](CCC(=O)O)C(=O)O)C(=O)O)cc1)C1CCc2cc3nc(CO)[nH]c(=O)c3cc21 (some centres undefined)" parameter=TGI unit_symbol=µM limit_operator=> result=100
molecule=Cc1cc(Nc2nc(N[C@@H](C)c3ncc(F)cn3)ncc2Cl)n[nH]1 parameter=TGI unit_symbol=µM limit_operator=> result=100
molecule=N#Cc1cnc(Nc2cc(NC[C@H]3CNCCO3)c(C(F)(F)F)cn2)cn1 parameter=TGI unit_symbol=µM limit_operator== result=10.2
